The reported numbers originate from PubChem BioAssay.

- ASSAY PROCEDURE: blockers of RIG-like receptor reporter activation – cell-based, Sendai virus stimulus, luciferase, 10K MLSCN set, TLR/RLR signaling modifier project, primary screen (AID 602276);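 further: firefly luciferase from ISG56 promoter only with Renilla not read in this screen; 0% = Sendai virus plus DMSO and 100% = medium plus DMSO without virus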
- DETAILS: HEK293 RL24 IRF3 luciferase reporter, at 10 µM, active compounds read high
Where a SMILES comes first, the peptide text is derived from it.
// values below are reported inhibition
Output spec: scalar in %, unitless text.

Some entries whose results are on file:
q: So what's the measured inhibition for this one? CC1CCCN(C(=O)c2cc(F)c(F)cc2Cl)C1 (centres undefined)
a: 2.92

q: Suppose we examine the compound "NC(=O)COC(=O)CNC(=O)c1ccc(Cl)cc1" ; what inhibition value has been reported?
a: 18.5

q: Form field: reported inhibition of "CCn1cc(SCC(=O)Nc2cc(C)on2)c2ccccc21"
a: 26.7

---
q: Recorded inhibition of "CN(C)c1ccc(C(=O)Nc2nnc(-c3ccc(Cl)cc3)o2)cc1" , please.
a: 13

q: For the compound shown here, O=C1NC(Cc2c[nH]c3ccccc23)C(=O)N1CCOc1ccccc1 (centres undefined) , give the reported inhibition.
a: 13.6

q: I would be grateful if you could share the reported inhibition for "CCCC(=O)Nc1cc(C)c(NC(=O)c2ccccn2)cn1" .
a: 4.7

q: # inhibition lookup, item "O=C(O)c1ccc2c3c(ncnc13)-c1ccccc1C2=O"
a: 18.4

q: State the recorded inhibition for this entry: CC(=O)C1=C(C)Nc2ncnn2C1c1cccc(OCc2ccccc2)c1 (centres undefined)
a: 11.8

q: # query: inhibition of entry CCOC(=O)C1CCN(C(c2cc3cc(C)cc(C)c3[nH]c2=O)c2nnnn2C2CCCCC2)CC1 (centres undefined)
a: 13.6

q: I have this compound here, "Cc1sc2ncn3ncnc3c2c1C" , and I need its recorded inhibition.
a: -16.9

q: Quick one: inhibition of "CCOC(=O)N1CCN(C(=O)c2ccc3nc4ccsc4c(=O)n3c2)CC1" ?
a: 14.6

q: Param item = "Cc1c(C(=O)NC2CC2)oc2ccc(S(=O)(=O)N3CCCCCC3)cc12" ; retrieve measured inhibition.
a: -22.3

q: What inhibition value was documented for this compound, "Cc1cccnc1NC(=O)CCCN1C(=O)c2ccccc2C1=O" ?
a: 11.3

q: # lookup: inhibition of "COc1ccc(-c2cc3c(=O)n(CC(=O)NC4CCN(Cc5ccccc5)CC4)ncn3n2)cc1"
a: -14.7

q: Fill in: inhibition of CCCC(NC(=O)CNC(=O)C(C)(C)C)C(=O)O (centres undefined) (HELM PEPTIDE1{[CC(C)(C)C(=O)[*:2]].G.[CCCC(N[*:1])C(=O)O]}$$$$V2.0) is ___
a: 14.8

###

- ASSAY PROCEDURE: inhibitors of TNFa-induced NFkB p65 translocation, primary screen, imaging, HUVEC, MLSMR starter and 10KST1 sets (AID 438);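 further: compound added about 3h40 before a 20 min TNFalpha stimulation; signal is the nuclear over cytoplasmic p65 intensity ratio per well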
- DETAILS: HUVEC TNFa-induced p65 nuclear translocation; at 2 µM, active compounds read high, 0% TNFa-plus-vehicle, 100% no-TNFa wells
QUANTITY: inhibition (%)
API: value field is a number in %; no unit string.

q: Field request: inhibition | item: Cc1ccc(C(C)n2cc(C(=O)NCCN3CCN(C)CC3)nn2)cc1 (centres undefined)
a: 12.1

q: Name the recorded inhibition for "CCc1ccc(NC(=O)c2cccnc2)cc1" .
a: -3.8

q: Look up inhibition: "CCCCNC(=O)CSc1nc2ccc(N3CCOCC3)cc2c(=O)n1CCc1ccccc1"
a: -0.8

API: the following record is the query input.
q: Can you share its inhibition? I mean this molecule: COc1ccc(C2C(C(=O)N3CCC(C)CC3)c3ccccc3C(=O)N2C)cc1 (centres undefined)
a: -3.8

###

- ASSAY PROCEDURE: reduction of polyQ htt aggregates in cells – imaging, exon1htt(103Q)mCFP cells, high-content imaging, primary screen (AID 483);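 further: compound exposure lasted 3 days before fixation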
- DETAILS: exon1htt(103Q)mCFP cell line, aggregate imaging, at 2 µM; active compounds read high
Active and inactive are the calls of the source.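 The calls were made as follows: active = visual image review flags a hit and inhibition of aggregation exceeds 20%; inconclusive = visual hit but inhibition at or below 20%; inactive = no hit on visual image review.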
Each entry below carries its reported inhibition of aggregation.

Some solved cases for reference:
q: What does the data say about its inhibition of aggregation? Entry: COc1cccc(C2C(C(N)=O)=C(C)Nc3nc(CCCO)nn32)c1OC (configuration not stated)
a: 11.5% (inactive)

q: Which inhibition of aggregation reading was recorded for the compound Cn1c2c(c(=O)n(C)c1=O)C(CC(=O)Nc1ccccc1)C(=O)N2 (configuration not stated) ?
a: -2.9% (inactive)

q: Give its inhibition of aggregation value. Item: Nc1nc2n(n1)C(c1cccc(Br)c1)CC(c1ccccc1)N2 (configuration not stated)
a: -26.4% (inactive)

q: Quick one: inhibition of aggregation for "COc1ccc(CN(Cc2nc3ccccc3c(=O)[nH]2)C(=O)NC2CCCCC2)cc1" ?
a: 4.6% (inactive)

q: Recorded inhibition of aggregation for "Cc1cc(NC(=O)c2cc3ccccc3o2)cc(C)c1OCC(=O)N1CCOCC1" , please?
a: -7% (inactive)

q: Would you kindly share the measured inhibition of aggregation for "COc1cc(CN2CCN(C(=O)CC(C)C)CC2)cc(OC)c1O" ?
a: -4.6% (inactive)

q: inhibition of aggregation lookup needed for "CCCCS(=O)(=O)NC1=NCN(CCOC(=O)c2ccccc2)CN1" , thanks.
a: 5.7% (inactive)

q: What does the record list as inhibition of aggregation for CCC(C)NC(=O)c1cc(CC(C)C)on1 (configuration not stated) ?
a: 21.8% (inactive)

q: Item "C=CCn1c(SCC(=O)NCCCC)nc2scc(-c3ccco3)c2c1=O" has what recorded inhibition of aggregation?
a: 2.2% (inactive)

q: Reported inhibition of aggregation, compound "O=C(Nc1cccnc1)c1noc2c1CCCCC2" : ____
a: 14.8% (inactive)

More entries:
q: // query inhibition of aggregation value for entry "Cc1cc(=O)n(CCO)c(O)c1C#N"
a: -6.8% (inactive)

q: Any idea what inhibition of aggregation was measured for COC(=O)C(C)NC(=O)C12CC3CC(CC(C3)C1)C2 (configuration not stated) ?
a: 13.2% (inactive)

q: inhibition of aggregation for COc1ccc(-n2c(SCC(=O)N3CCCCC3C)nnc2-c2cccnc2)cc1 (configuration not stated) ?
a: 24.3% (inactive)

###

- SYSTEM: Alpha-2C adrenergic receptor (Homo sapiens) (UniProt P18825)
- Sequence (P18825 whole entry, looked up): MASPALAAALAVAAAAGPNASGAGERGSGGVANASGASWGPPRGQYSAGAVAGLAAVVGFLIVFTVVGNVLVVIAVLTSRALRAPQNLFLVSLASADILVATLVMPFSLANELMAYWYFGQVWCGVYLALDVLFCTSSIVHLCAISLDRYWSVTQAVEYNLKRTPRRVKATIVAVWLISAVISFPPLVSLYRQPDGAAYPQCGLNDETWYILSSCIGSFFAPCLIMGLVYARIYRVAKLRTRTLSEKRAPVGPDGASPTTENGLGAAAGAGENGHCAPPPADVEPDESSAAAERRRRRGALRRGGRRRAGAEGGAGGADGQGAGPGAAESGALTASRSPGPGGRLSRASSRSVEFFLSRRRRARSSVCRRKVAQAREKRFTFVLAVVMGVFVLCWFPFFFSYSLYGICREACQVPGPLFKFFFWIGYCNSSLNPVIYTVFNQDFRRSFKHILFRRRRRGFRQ
- ASSAY PROCEDURE: compounds altering alpha2C-coupled GIRK flux – cell-based, HEK293 alpha2C/GIRK1/2, thallium flux, primary screen (AID 624);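 further: slope of fluorescence ratio to pre-addition baseline per second over 15 to 24 s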
- DETAILS: thallium flux BTC fluorescence, at 10 µM, actives lie on both sides
QUANTITY: slope
Lab note: jot the number down without any unit.

Use these answered entries as a reference point.
q: Recall the recorded slope for "O=C(OCc1nnc(-c2ccc(Cl)cc2)o1)c1ccc(=O)n(Cc2ccccc2)n1" with Alpha-2C adrenergic receptor (Homo sapiens) (UniProt P18825) and state it.
a: 0.00426

q: Missing value: slope, Alpha-2C adrenergic receptor (Homo sapiens) (UniProt P18825), entry "NC(=O)c1sc2nc3c(c(-c4ccco4)c2c1N)CCC3" . Fill in?
a: 0.00352

q: Identify the measured slope of "CCN1CCN(c2ncnc3c2cnn3-c2ccc(C)cc2C)CC1" for Alpha-2C adrenergic receptor (Homo sapiens) (UniProt P18825).
a: 0.00772

Shifting focus to the compound that follows.
q: Recorded slope for COCCNC(=O)C(c1cccc(OC)c1)N(Cc1cccs1)C(=O)Cn1nnc2ccccc21 (centres undefined) with Alpha-2C adrenergic receptor (Homo sapiens) (UniProt P18825), please?
a: 0.00445

###

- ASSAY PROCEDURE: blockers of RIG-like receptor reporter activation – cell-based, Sendai virus stimulus, luciferase, 10K MLSCN set, TLR/RLR signaling modifier project, primary screen (AID 602276);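 further: firefly luciferase from ISG56 promoter only with Renilla not read in this screen; 0% = Sendai virus plus DMSO and 100% = medium plus DMSO without virus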
- DETAILS: HEK293 RL24 IRF3 luciferase reporter, at 10 µM, active compounds read high
Items are presented alongside their recorded inhibition.
The answer is to be given in %; state only the numeric part.

Some solved entries appear below for comparison.
q: Item "Cc1ccc(S(=O)(=O)NC(=O)c2cc(C)n(CCCn3ccnc3)c2C)cc1" has what recorded inhibition?
a: 11.6

q: Quick check: inhibition of "CCn1c(SCc2cccc(C(F)(F)F)c2)nnc1-c1ccco1" ?
a: 13.2

q: Given the molecule "Cc1nnc(SCC(=O)Nc2ccc(Br)cn2)[nH]c1=O" , what is its reported inhibition?
a: 15.8

q: Please give the measured inhibition for this molecule: "Cc1cnc(C(=O)OCC(=O)Nc2ccc(Cl)cc2Cl)cn1"
a: 10.9

q: Which inhibition is listed for "COc1ccc(CN(Cc2nc3ccccc3c(=O)[nH]2)C(=O)NC2CCCCC2)cc1" ?
a: 15.1

Next:
q: Quick one: inhibition of "Cc1cccc(-c2nnc(SCC#N)n2-c2cccc(Cl)c2)c1" ?
a: 10.9

q: Please look up its inhibition: "Cc1ccccc1Cn1ccc(NC(=O)c2onc(C)c2Cl)n1"
a: -15.7

q: Using the record for "O=C(c1ccc2c(c1)c(=O)oc1ccccc12)N1CCCCC1" , report its inhibition.
a: -50.7

q: Field request: inhibition | item: "O=S(=O)(c1ccc2ccccc2c1)N1CCCCC1"
a: 13.9

q: Please report the recorded inhibition for "COc1ccc(C)cc1NC(=O)CN(Cc1nnc(-c2ccc(Cl)cc2)o1)C1CCCC1" .
a: -26.9

q: inhibition for "Cc1cc(=O)[nH]c(SCc2nc3ncccn3c2Br)n1" ?
a: 8.84

q: I'd like to know its inhibition. The molecule in question is "N#Cc1c(N)c(C(=O)c2ccccc2)n2c1CCCC2"
a: -3.25

q: Recorded inhibition of O=C(C1CCCN(S(=O)(=O)c2cccs2)C1)N1CCc2ccccc2C1 (centres undefined) , please.
a: 13.1
